Values from PubChem BioAssay (NCI)

Below, each entry is listed with its recorded TGI.
Tested on: CCRF-CEM leukemia
Experiment Notes: NCI tumour cell line growth inhibition, 48 h

Worked examples follow.
Q. Report measured TGI on CCRF-CEM leukemia; entry: "O=C(/C=C/c1cccs1)c1ccsc1"
A. 45.5 µM

Q. Report the value of TGI obtained on CCRF-CEM leukemia for "Cc1ccc(NC(=O)c2cccc([N+](=O)[O-])c2O)c(C)c1" .
A. > 100 µM

Continuing:
Q. Enter recorded TGI with CCRF-CEM leukemia for "CC(=O)c1ccc2c(c1)oc(=O)n2CCN(C)C" here.
A. > 100 µM

Q. Give CCRF-CEM leukemia TGI for the following molecule: "Cc1nnc(N)nc1/C=C\c1cccs1"
A. 70.8 µM

Q. Given COC1=NN2C(OC)(c3ccccc3)c3c(-c4ccccc4)sc(-c4ccccc4)c3C2(c2ccccc2)S1 (stereo not given) , report its TGI on CCRF-CEM leukemia.
A. > 100 µM

Q. Give CCRF-CEM leukemia TGI for the following molecule: "CC(C)[C@@H](C(=O)O[C@@H]1/C=C/C(=O)O[C@@H](C)CCC/C=C/[C@@H]2C[C@H](O)C[C@H]21)[N+](C)(C)C"
A. > 100 µM

Q. GET TGI | system: CCRF-CEM leukemia | item: "COc1ccc(/C=C/c2nc(N3CCOCC3)c3cc(F)c(F)cc3n2)cc1OC"
A. > 100 µM

Q. Please indicate recorded TGI of COc1cc2c(cc1OCCCCCCNC(=O)c1cc3ccccc3[nH]1)N=CC1CCCN1C2=O (stereo not given) measured with CCRF-CEM leukemia.
A. > 100 µM

Q. Provide TGI, tested on CCRF-CEM leukemia, for "COc1cc(C/C=C/c2ccccc2)c(OC)cc1O" .
A. 52.3 µM

Q. Find the measured TGI of "C(=C1\CCC/C(=C/c2ccccc2)C1=NNc1ccccc1)/c1ccccc1" with CCRF-CEM leukemia as test system.
A. > 100 µM
